Answer each item with its documented EC50.
# target.desc: E. coli K12 PBP3 (Escherichia coli, UniProt P0AD68)
# Sequence (P0AD68 1-577): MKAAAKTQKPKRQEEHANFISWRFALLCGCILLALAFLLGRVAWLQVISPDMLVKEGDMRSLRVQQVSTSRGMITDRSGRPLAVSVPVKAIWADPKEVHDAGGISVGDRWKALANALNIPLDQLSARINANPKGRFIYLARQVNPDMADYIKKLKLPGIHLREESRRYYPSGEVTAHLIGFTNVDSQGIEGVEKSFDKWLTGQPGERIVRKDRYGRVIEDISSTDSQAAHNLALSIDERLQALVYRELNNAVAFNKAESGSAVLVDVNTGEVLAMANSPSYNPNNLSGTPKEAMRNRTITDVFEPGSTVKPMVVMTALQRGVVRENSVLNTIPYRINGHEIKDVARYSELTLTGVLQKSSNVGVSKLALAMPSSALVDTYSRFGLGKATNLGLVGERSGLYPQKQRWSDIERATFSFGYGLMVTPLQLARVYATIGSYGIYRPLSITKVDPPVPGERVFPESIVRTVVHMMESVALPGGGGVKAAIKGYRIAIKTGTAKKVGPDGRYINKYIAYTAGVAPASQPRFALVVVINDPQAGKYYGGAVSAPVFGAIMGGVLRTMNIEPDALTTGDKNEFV
# experimental.details: biochemical

Note to self: EC50 of NCCN1CCN(C(=O)N[C@@H](C(=O)N[C@H]2Cc3cccc(C(=O)O)c3OB2O)c2cc(F)c(O)c(F)c2F)C(=O)C1=O (single isomer, unassigned) with E. coli K12 PBP3 (Escherichia coli, UniProt P0AD68) was < 30 µM

Reported EC50 (E. coli K12 PBP3 (Escherichia coli, UniProt P0AD68)) for entry CCN1CCN(C(=O)NC(C(=O)N[C@H]2Cc3cccc(C(=O)O)c3OB2O)c2ccc(C(=O)O)c(OC)c2)C(=O)C1=O (stereo partly drawn) is < 30 µM

Here CCN1CCN(C(=O)NC(C(=O)N[C@H]2Cc3cccc(C(=O)O)c3OB2O)c2ccc(O)c(NC(C)=O)c2)C(=O)C1=O (stereo partly drawn) was tested on E. coli K12 PBP3 (Escherichia coli, UniProt P0AD68), and its EC50 came to 30 to 500 µM

Query NS(=O)(=O)c1cc(O)cc(C(NC(=O)N2CCN(Cc3c(F)cc(O)c(O)c3Cl)C(=O)C2=O)C(=O)N[C@H]2Cc3cccc(C(=O)O)c3OB2O)c1 (stereo partly drawn) on E. coli K12 PBP3 (Escherichia coli, UniProt P0AD68); EC50 returned: 30 to 500 µM

The reported E. coli K12 PBP3 (Escherichia coli, UniProt P0AD68) EC50 of CCN1CCN(C(=O)NC(C(=O)N[C@H]2Cc3cccc(C(=O)O)c3OB2O)c2cccc(NS(C)(=O)=O)c2)C(=O)C1=O (stereo partly drawn) is < 30 µM

Record for NCCN1CCN(C(=O)NC(C(=O)N[C@H]2Cc3ccc(F)c(C(=O)O)c3OB2O)c2nc(N)sc2F)C(=O)C1=O (stereo partly drawn) under target or system E. coli K12 PBP3 (Escherichia coli, UniProt P0AD68): EC50 reported as 30 to 500 µM

Tested system E. coli K12 PBP3 (Escherichia coli, UniProt P0AD68); EC50 recorded for CCN1CCN(C(=O)NC(C(=O)N[C@H]2Cc3cccc(C(=O)O)c3OB2O)c2cc(F)c(O)cc2Cl)C(=O)C1=O (stereo partly drawn) was < 30 µM

Field EC50 (E. coli K12 PBP3 (Escherichia coli, UniProt P0AD68)), entry "Nc1nc(/C(=N/OC[C@H](NC(=O)c2ccc(O)c(O)c2Cl)C(=O)O)C(=O)N[C@H]2Cc3cccc(C(=O)O)c3OB2O)cs1" : 30 to 500 µM

# value of EC50, E. coli K12 PBP3 (Escherichia coli, UniProt P0AD68), item CCN1CCN(C(=O)NC(C(=O)N[C@H]2Cc3cccc(C(=O)O)c3OB2O)c2cc(C#N)c(O)cc2F)C(=O)C1=O (stereo partly drawn) = < 30 µM

Measured EC50 (E. coli K12 PBP3 (Escherichia coli, UniProt P0AD68)), entry CCN1CCN(C(=O)NC(C(=O)N[C@H]2Cc3cccc(C(=O)O)c3OB2O)c2cncc(O)c2)C(=O)C1=O (stereo partly drawn) : 30 to 500 µM

Item CS(=O)(=O)N1CCN(C(=O)N[C@H](C(=O)N[C@H]2Cc3cccc(C(=O)O)c3OB2O)c2c(F)cc(O)cc2F)C1=O (single isomer, unassigned) ; assay system E. coli K12 PBP3 (Escherichia coli, UniProt P0AD68); EC50 reported as 30 to 500 µM

Given the compound O=C(NC(C(=O)N[C@H]1Cc2ccc(F)c(C(=O)O)c2OB1O)c1ncc(O)cc1F)c1ccc(O)c(O)c1Cl (stereo partly drawn) and test system E. coli K12 PBP3 (Escherichia coli, UniProt P0AD68), the measured EC50 is 30 to 500 µM

The observed EC50 for NCCN1CCN(C(=O)NC(C(=O)N[C@H]2Cc3cccc(C(=O)O)c3OB2O)c2cc(Cl)c(O)cc2F)C(=O)C1=O (stereo partly drawn) when tested with E. coli K12 PBP3 (Escherichia coli, UniProt P0AD68) stands at < 30 µM

NCCN1CCCN(C(=O)N[C@H](C(=O)N[C@H]2Cc3cccc(C(=O)O)c3OB2O)c2c(F)cc(O)cc2F)C1=O (single isomer, unassigned) tested on E. coli K12 PBP3 (Escherichia coli, UniProt P0AD68) gave EC50: 30 to 500 µM

For CCN1CCN(C(=O)NC(C(=O)N[C@H]2Cc3ccc(OCCN)c(C(=O)O)c3OB2O)c2ccccc2)C(=O)C1=O (stereo partly drawn) on E. coli K12 PBP3 (Escherichia coli, UniProt P0AD68), measured EC50 was 30 to 500 µM

Field EC50 (E. coli K12 PBP3 (Escherichia coli, UniProt P0AD68)), entry CCN1CCN(C(=O)NC(C(=O)N[C@H]2Cc3cccc(C(=O)O)c3OB2O)c2cc(Cl)c(O)cc2F)C(=O)C1=O (stereo partly drawn) : < 30 µM

Param item: NCCCN1CCN(C(=O)N[C@@H](C(=O)N[C@H]2Cc3ccc(F)c(C(=O)O)c3OB2O)c2c(F)cc(O)c(O)c2Cl)C(=O)C1=O (single isomer, unassigned) ; param system: E. coli K12 PBP3 (Escherichia coli, UniProt P0AD68); output EC50: < 30 µM

With E. coli K12 PBP3 (Escherichia coli, UniProt P0AD68) as the test system, NCCN1CCN(C(=O)N[C@@H](C(=O)N[C@H]2Cc3cccc(C(=O)O)c3OB2O)c2ccc(C(=O)O)cc2)C(=O)C1=O (single isomer, unassigned) showed EC50 of < 30 µM

Result for CCN1CCN(C(=O)N[C@@H](C(=O)N[C@H]2Cc3cccc(C(=O)O)c3OB2O)c2ccc(C(=O)O)c(Cl)c2)C(=O)C1=O (single isomer, unassigned) , tested on E. coli K12 PBP3 (Escherichia coli, UniProt P0AD68), EC50: < 30 µM

Reported E. coli K12 PBP3 (Escherichia coli, UniProt P0AD68) EC50 for item CCN1CCN(C(=O)N[C@H](C(=O)N[C@H]2Cc3cccc(C(=O)O)c3OB2O)c2ccc(C(=O)O)c(F)c2)C(=O)C1=O (single isomer, unassigned) was < 30 µM

Measured EC50 (E. coli K12 PBP3 (Escherichia coli, UniProt P0AD68)), entry O=C(O)c1ccc(C(NC(=O)N2CCN(CCNC(=O)c3ccc(O)c(O)c3Cl)C(=O)C2=O)C(=O)N[C@H]2Cc3ccc(F)c(C(=O)O)c3OB2O)cc1F (stereo partly drawn) : < 30 µM
